System: NCI-H1355
test_protocol: relative viability (nuclei count vs DMSO), 5 days (fraction); higher = more cells survive
conditions: first compound 0.05 µM
metric: relative viability
Answer with the value's number alone.

Known results for compounds:
compound="COc1cc2nccc(Oc3ccc(NC(=O)Nc4cc(C)on4)c(Cl)c3)c2cc1OC [Tivozanib] + COc1cc2c(Oc3ccc(NC(=O)C4(C(=O)Nc5ccc(F)cc5)CC4)cc3F)ccnc2cc1OCCCN1CCOCC1 [Foretinib] (partner 0.25 µM)" system_name=NCI-H1355 metric="relative viability" recorded_value=0.975
compound="Nc1ccn([C@@H]2O[C@H](CO)[C@@H](O)[C@@H]2O)c(=O)n1 [Cytarabine] + CC(=O)c1c(C)c2cnc(Nc3ccc(N4CCNCC4)cn3)nc2n(C2CCCC2)c1=O [Palbociclib] (partner 0.5 µM)" system_name=NCI-H1355 metric="relative viability" recorded_value=0.396

Please turn your attention to the following entry.
Exercise: Would you mind telling me what relative viability value was observed for COc1cc2nccc(Oc3ccc(NC(=O)Nc4cc(C)on4)c(Cl)c3)c2cc1OC [Tivozanib] + Nc1nc2[nH]cc(CCc3ccc(C(=O)N[C@@H](CCC(=O)O)C(=O)O)cc3)c2c(=O)[nH]1 [Pemetrexed] (partner 0.2 µM) ?
Key: 1.04
